# Tgt: CYP1A2 (Homo sapiens, UniProt P05177)
# Sequence (P05177 whole entry): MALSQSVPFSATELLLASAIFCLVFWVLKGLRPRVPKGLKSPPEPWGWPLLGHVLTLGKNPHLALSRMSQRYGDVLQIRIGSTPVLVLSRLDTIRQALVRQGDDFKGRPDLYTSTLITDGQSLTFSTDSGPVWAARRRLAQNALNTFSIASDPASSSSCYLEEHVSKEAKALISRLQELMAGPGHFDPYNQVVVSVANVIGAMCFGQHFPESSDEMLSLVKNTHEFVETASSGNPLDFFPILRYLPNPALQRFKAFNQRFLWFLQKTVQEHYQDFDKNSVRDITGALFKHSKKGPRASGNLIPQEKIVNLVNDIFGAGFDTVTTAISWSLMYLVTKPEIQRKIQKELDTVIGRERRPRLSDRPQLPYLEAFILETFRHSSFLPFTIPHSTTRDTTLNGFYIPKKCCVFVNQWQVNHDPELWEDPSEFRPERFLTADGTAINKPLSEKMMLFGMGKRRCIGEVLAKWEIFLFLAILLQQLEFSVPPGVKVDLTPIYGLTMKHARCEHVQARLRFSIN
# Method notes: Inactivation of CYP1A2 in human liver microsomes after 5 mins by LC-MS/MS analysis
# Type: ADME
# Protocol conditions: human, liver microsomes
Experimental endpoint: kinact at 5 min (s⁻¹)
Field: numeric (s⁻¹). Do not append units.

-- ask Form entry - test system: CYP1A2 (Homo sapiens, UniProt P05177); read-out: kinact at 5 min; compound: "Cn1c(C2(NC(=O)c3ccc4c(C5CCCC5)c(-c5ncc(Br)cn5)n(C)c4c3)CCC2)nc2ccc(/C=C/C(=O)O[C@@H]3O[C@H](C(=O)O)[C@@H](O)[C@H](O)[C@H]3O)cc21"
-- reply 0.000733
